For each of the sequences below, state its PBM binding z-score.
tested on: LXRb homodimer (NR concentration 270 nM); assay: PBM binding z-score (relative to random genomic background probes); higher = stronger binding; sequences stand for … in GC…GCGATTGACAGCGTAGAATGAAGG
Answer using only a numeral; do not append any unit.

Query block: # query: PBM binding z-score of entry ATCGAAAGGTCGACGAGGTTAGTATACACCGTTT
Result block: 0.782

Query block: Entry to check: ATCTCTTGGTAAGACTCAGTTCAGTGAAGAACGC
Result block: 1.08

Query block: Entry to check: TCGAGTAGGTTAGCGGCATTCAGAATGGCGTCGA
Result block: -1.3

Query block: Entry to check: CCTTGCGGGTCACGAGGTTATAGCACGACGAGCG
Result block: -0.139

Query block: Entry to check: TCTTGTAGATCAACAGGAGGTGAAGAAAGATCGA
Result block: -0.585

Query block: Entry to check: TATACAGGGTCAAAGACCAGAGTACGAATGTCGA
Result block: 2.31

Query block: Entry to check: GCTGCCAGGTCAGGTTGGTCAGCTAACGGGTACG
Result block: -0.51

====

test system: THRa:RXRa (NR concentration 90 nM, RXRa partner concentration 90 nM); test: PBM binding z-score (relative to random genomic background probes); higher = stronger binding; sequences stand for … in GC…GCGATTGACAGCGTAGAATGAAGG
Cut-off 4 on PBM binding z-score, inclusive. At or above means yes (1); below means no (0).

Query block: Could you please find out whether CAAACTAGGTCACGAAAGGTCACAGTCGAATGAC has PBM binding z-score that meets 4 or exceeds it?
Result block: yes (1)

Query block: Entry to check: CTGGAAAGGTCGGTTGAGGTGAGTATACGGATAA
Result block: yes (1)

Query block: Entry to check: TCATATAGGTAAAGGTCAAAGTCGAACGATATGA
Result block: no (0)

Query block: Entry to check: TCTAGTTGGTCAAAGGTAACACACTCGAAATGCG
Result block: no (0)

Query block: Entry to check: CGTTACGGGTCACTCCAGGTTATAGCATCGGAGT
Result block: yes (1)

Query block: Entry to check: TCGAGTAGGTCAGTCGGGGCATTCAGCCAACATA
Result block: no (0)

====

system: LXRb:RXRa (NR concentration 270 nM, RXRa partner concentration 90 nM); assay: PBM binding z-score (relative to random genomic background probes); higher = stronger binding; sequences stand for … in GC…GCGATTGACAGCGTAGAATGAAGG
Cut-off 0.9 on PBM binding z-score, inclusive. At or above means T; below means F.

Query block: Could you please find out whether CCTAGCAGGCCAATCTGGGTCAGTCAAGGCTTGA has PBM binding z-score that meets 0.9 or exceeds it?
Result block: F

Query block: Entry to check: ATCGAAAGGTCGAAGGTGAGTAAACCCACCCGAA
Result block: T

Query block: Entry to check: CGAACGAGGGCATGAGTTGATGGCAAATGCCGAT
Result block: F

Query block: Entry to check: CTACCAAGGTGAACAAGGTCGGTGATTACTATTC
Result block: F

Query block: Entry to check: ATATCTAGGTAAAGATAGTTCAGTGAATGCAAAT
Result block: F

Query block: Entry to check: AGTCAAAGTTCACCTAGGTAACGTAAGATATGCT
Result block: T

Query block: Entry to check: CGCCCAAGGTCAAAGGTCAGTGAAGAGATGACGG
Result block: T

Query block: Entry to check: AGAACGAGGGGACGCTGAGTTGATAGCAGAGTAG
Result block: F

Query block: Entry to check: CAAACTAGGTCAAGAGGTCAAAGACCGCTTCCCG
Result block: T

Query block: Entry to check: TCTTGTAGATCAACAGGAGGTCAAGAAAGATCGA
Result block: T

Query block: Entry to check: CCCACTGGGGCAAGGTTACCATAACGCACAGCCA
Result block: F

Query block: Entry to check: ATCGAAAGCTCGAGGTGAGTATAGAGAAAGGGAA
Result block: F

Query block: Entry to check: AGTCAAAGTTCAGGACGGGGTAACGTAAAGCACG
Result block: T

Query block: Entry to check: ATATTTAGGTTATCGGGTCATTCAGTTTGCGCAT
Result block: T

Query block: Entry to check: CCTACTGGGCCAAGGTAATTGATCAGTCAAAGCA
Result block: F

Query block: Entry to check: ATATCTAGGTAAAGTTCAGTGAAAGATCGATAGA
Result block: T

Query block: Entry to check: CCTTACGAGTCACTCCAGGTTATAGCATCGGAGT
Result block: T

Query block: Entry to check: ACAGACAGGTGAGTGAAGGGAACTCAGCTGGACG
Result block: F

Query block: Entry to check: CGTGAAAGTTCAAGGTAACGTAACAGAAAGCAGC
Result block: T

Query block: Entry to check: TCATATAGGTAAAGGTGCAAGTCGAACGATATGA
Result block: F

Query block: Entry to check: TCATATAGGTAAATGCTAGCTGAAAGTCCGATCT
Result block: F

Query block: Entry to check: CCGACTGGGGCAAAGGTTACAATACTCAGTACGA
Result block: T

Query block: Entry to check: CCTACTGCGCCATTCAGAGGTCATTGATCATATG
Result block: T

Query block: Entry to check: TCTTGTAGATCAACAGGAGGTTAAGTAAGATCGA
Result block: T

Query block: Entry to check: TGTCAAATTTCAAAGGTAACGTAAGTATCCACAC
Result block: F

Query block: Entry to check: CCGCCTGGGGCAAAGGTTACCATACTCAGTACGA
Result block: T

Query block: Entry to check: GCTCGTAGATCAAGGTTAAGAAAGACTAAGCTAA
Result block: F

====

system: PPARg:RXRa (NR concentration 180 nM, RXRa partner concentration 90 nM); experiment: PBM binding z-score (relative to random genomic background probes); higher = stronger binding; sequences stand for … in GC…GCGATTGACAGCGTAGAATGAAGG
measured-metric: PBM binding z-score
Answer using only a numeral; do not append any unit.

Query block: # query: PBM binding z-score of entry CCTATTAGTTGACCATAAGGGCAACCAAAGCTCG
Result block: 0.604

Query block: Entry to check: AGAATGAGGTTACCAAAGATCAAGGAAACGCTTG
Result block: 2.89

Query block: Entry to check: GCGACTGGGGCAAAGAAGGTTACCATAAGGTTGG
Result block: 1.56

====

system: RXRa homodimer (NR concentration 180 nM); assay: PBM binding z-score (relative to random genomic background probes); higher = stronger binding; sequences stand for … in GC…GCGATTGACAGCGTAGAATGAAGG
Cut-off 1 on PBM binding z-score, inclusive. At or above means 1; below means 0.

Query block: Could you please find out whether ATATGTAGGTTAAGGGTCATTCATGTTGGTTCGC has PBM binding z-score that meets 1 or exceeds it?
Result block: 1

Query block: Entry to check: ATATATAGGTTAGCTGGGGTCATTCAGACTAGGC
Result block: 1

Query block: Entry to check: AGCTCTAGGTAACCAAGTTCAGTGAATGCCGAAC
Result block: 0

Query block: Entry to check: TCTTGCAGATCAATAGAGGTTAAGAAAGTGCGCT
Result block: 1

Query block: Entry to check: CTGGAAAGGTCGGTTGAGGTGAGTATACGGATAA
Result block: 1

Query block: Entry to check: ACTAGCAGGCCAAGTTTGGGTCACTCGAACAAAG
Result block: 0

====

test system: PXR:RXRa (NR concentration 270 nM, RXRa partner concentration 90 nM); experiment: PBM binding z-score (relative to random genomic background probes); higher = stronger binding; sequences stand for … in GC…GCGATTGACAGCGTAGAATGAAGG
For each of the sequences below, state its PBM binding z-score.
Answer using only a numeral; do not append any unit.

Query block: # query: PBM binding z-score of entry AGAATGAGGTTATTACGATCAGGGAATTGCGGTC
Result block: 1.26

Query block: Entry to check: GCTGCAAGGTCAGGTTGGTCAGCTAACGGGTACG
Result block: 2.44

Query block: Entry to check: CGTCCAAGGTCAGTAGGTCAGTGAAAGCGACGTG
Result block: 3.23

Query block: Entry to check: CCTAGCAGGCCAGGGTCATTCAAGCATTTCGCTT
Result block: 3.11

Query block: Entry to check: GCAGACGGGTGAAACGCAGGTAACTCAGGGTGGC
Result block: -0.244

Query block: Entry to check: AGTCAAAGTTCAGGAAGAGGTAACGTAAAGCACG
Result block: 2.84

Query block: Entry to check: CCTCGGAGAACAGAAGGTCAGAGCTGTCCGCTTT
Result block: 1.44

Query block: Entry to check: CCGACTTGGGCAAGGTTACCATAACGCACAGCCA
Result block: 0.327

Query block: Entry to check: TTTTGTAGATCAAGCAGGTTAAGAAAGCCTGAGT
Result block: 0.303

Query block: Entry to check: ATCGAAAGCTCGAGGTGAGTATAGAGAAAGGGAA
Result block: -0.37

Query block: Entry to check: CAAACTAGGTCACCAGAAGGTCAAAGTCCGCATG
Result block: 5.96

Query block: Entry to check: GCTGCTAGGTCAACTGATGGTAAGCTAAAGCTCG
Result block: 1.29

Query block: Entry to check: CCGACTGGGGCAGAAAGGTTACCCTACCATCCGG
Result block: 0.618

Query block: Entry to check: ACAGACAGGTGATGAAGGTAATTCAGGCTATCAT
Result block: -0.0311

Query block: Entry to check: ATATGTACGTTATCGGGTCATTCAGTTTGCGCAT
Result block: 3.32
